System: 22Rv1-SamR cells
assay-name: Growth assay (SRB), Samuraciclib-resistant 22Rv1
Format: cell-based, human
test-settings: Homo sapiens, 96 h; 22Rv1-SamR; 4 days; SRB; read-out: IC50, growth inhibition
assay-readout: IC50 (µM)
Provide only the numeric value, understood in µM.

get_value(item= CC(C)c1cnn2c(NCc3ccccc3)cc(NC[C@H]3CCNC[C@@H]3O)nc12 , readout=IC50) returns 1.72

---

Tested on: 22Rv1 cells
assay-name: Growth assay (SRB), 22Rv1
Format: cell-based, human
test-settings: Homo sapiens, 22Rv1, 96 h, 22Rv1; 4 days; SRB; read-out: IC50, growth inhibition
assay-readout: IC50 (nM)
Numbers only; they are read as nM.

So, CC(C)c1cnn2c(NCc3ccccc3)cc(NC[C@H]3CCNC[C@@H]3O)nc12 ? Its IC50 was 107

---

subject-of-test: CDK7-WT (Homo sapiens, UniProt P50613)
Sequence (P50613 whole entry): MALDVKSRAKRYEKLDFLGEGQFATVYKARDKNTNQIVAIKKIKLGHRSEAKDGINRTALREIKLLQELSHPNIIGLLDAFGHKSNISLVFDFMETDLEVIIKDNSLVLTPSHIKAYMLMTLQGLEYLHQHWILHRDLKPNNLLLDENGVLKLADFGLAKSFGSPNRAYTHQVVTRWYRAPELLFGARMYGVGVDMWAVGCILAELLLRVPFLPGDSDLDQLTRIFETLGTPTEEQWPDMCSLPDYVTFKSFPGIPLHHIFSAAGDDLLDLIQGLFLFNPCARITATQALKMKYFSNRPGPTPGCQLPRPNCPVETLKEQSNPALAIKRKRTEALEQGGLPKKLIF
assay-name: NanoBRET Target Engagement assay, K-10 tracer displacement in HEK293 cells
test-settings: CDK7-WT; K-10 0.5 µM; HEK293
assay-readout: EC50 (µM)
Give the value, in units of µM, as a plain number.

Entry CN(C)C/C=C/C(=O)Nc1ccc(C(=O)N[C@@]2(C)CCC[C@@H](Nc3ncc(Cl)c(-c4c[nH]c5ccccc45)n3)C2)nc1 ; assay system CDK7-WT (Homo sapiens, UniProt P50613); EC50 recorded at 0.029

---

Can you tell me IC50 for the items I'm about to list?
Tested on: MCF7 cells
assay-name: Growth assay (SRB), MCF7
Type: cell-based, human
test-settings: 4 days, SRB
Protocol: To determine the IC50 of drug treatments on growth, cells were seeded in 96-well culture plates. Two days after seeding, the cells were treated with increasing concentrations of drugs and incubated for 4 days. Cell number was determined using the SRB assay (Skehan et al, [1990]), and IC50 values were calculated using non-linear regression curve fitting in GraphPad Prism v10. […] Cells were then incubated in an IncuCyte Zoom live-cell imager, with cell confluency measured every 6 h. […]
Lab book: enter the figure in nM, no units written.

Reported IC50 ( C=CC(=O)Nc1ccc(C(=O)Nc2[nH]nc3c2CN(C(=O)N[C@H](CN(C)C)c2ccccc2)C3(C)C)cc1 ) = 5.5

Measured IC50 of CC[C@H](CO)Nc1nc(NCc2ccc(-c3ccccn3)cc2)c2ncn(C(C)C)c2n1 [(R)-CR8] : 84.5

Form: compound = CN(C)C/C=C/C(=O)Nc1ccc(C(=O)N[C@@]2(C)CCC[C@@H](Nc3ncc(Cl)c(-c4c[nH]c5ccccc45)n3)C2)nc1 ; IC50 = 0.89

The reported IC50 of the compound CC(C)c1cnn2c(NCc3ccccc3-n3cccn3)nc(OC3CCCNC3)nc12 (centres unmarked) was 7.3

Field IC50 (entry CN(C)C/C=C/C(=O)Nc1ccc(C(=O)Nc2cccc(Nc3ncc(Cl)c(-c4c[nH]c5ccccc45)n3)c2)cc1 ) reads 153

---

Tested on: MCF7-CDK7-D97N cells
assay-name: Growth assay (SRB), MCF7 CDK7-D97N knock-in
Type: cell-based, human
test-settings: MCF7-CDK7-D97N; 4 days; SRB
assay-readout: IC50

Measured IC50 of CC(C)c1cnn2c(NCc3ccccc3-n3cccn3)nc(OC3CCCNC3)nc12 (stereo not shown) : 284 nM

Sample C=CC(=O)Nc1ccc(C(=O)Nc2[nH]nc3c2CN(C(=O)N[C@H](CN(C)C)c2ccccc2)C3(C)C)cc1 ; IC50 observed: 8 nM

Measured IC50 of CN(C)C/C=C/C(=O)Nc1ccc(C(=O)Nc2cccc(Nc3ncc(Cl)c(-c4c[nH]c5ccccc45)n3)c2)cc1 : 68.7 nM

Record CN(C)C/C=C/C(=O)Nc1ccc(C(=O)N[C@@]2(C)CCC[C@@H](Nc3ncc(Cl)c(-c4c[nH]c5ccccc45)n3)C2)nc1 . Reported IC50: 0.17 nM

---

Tested on: MCF7-CDK7-D97N cells
assay-name: Growth assay (SRB), MCF7 CDK7-D97N knock-in
Assay type: cell-based, human
test-settings: Homo sapiens, 96 h; MCF7-CDK7-D97N; 4 days; SRB
Record form. Attribute: IC50. Fill in for each entry.
Answers without a unit are incomplete; give the number and then its unit.

get_value(item= CC1(C)CC[C@H](Nc2ncc(C(F)(F)F)c(-c3c[nH]c4c(P(C)(C)=O)c(C#N)ccc34)n2)CN1 , readout=IC50) returns 1550 nM

# compound CC(C)c1cnn2c(NCc3ccccc3)cc(NC[C@H]3CCNC[C@@H]3O)nc12 ; its IC50 = 549 nM
